- Test system: TALE tetM_611 (16 bp recognition) (engineered TALE (AvrBs3 scaffold in pMAL-c2X, repeats replaced; Xanthomonas?))
- METHOD_SUMMARY: EMSA
- REPORTED_CONDITIONS: EMSA: 12 mM Tris, 60 mM KCl, 2 mM DTT, 0.1 mg/mL BSA, 30% glycerol, 5 mM MgCl2, 0.2 mM EDTA, RT 1 h then 4 °C 30 min, TALE 0.03-200 nM; GO assay: TALE storage …
QUANTITY: Kd (nM)
Response body: numeric value in nM, unit text excluded.

Problem: Consider the sequence shown here: GCGTGTTCTCTGTTCCCTCGCG / TTTTTTTTTTTTTTTCGCGAGGGAACAGAGAACACGC [tetM_611 EMSA oligo] What is its recorded Kd?
Result: 4.6
